test system: HCV; assay: Focus reduction assay of HCV infection; type: cell-based; conditions: Hepatitis C virus, Huh-7; 5 μg/ml, Huh7 derivative cells; read-out: Inhibition Rate of the number of Virus foci (%)
Assign true (1) to entries whose inhibition at 5 µg/mL meets or exceeds 40%; assign false (0) to the rest.

Record excerpt, results attached:
In [3]: df
Out[3]:
                                   compound     label
0  Cc1cc(O)c2c(c1)C(=O)c1cc(O)cc(O)c1C2=O [Emodin, 1,3,8-dihydroxyl-6-methyl anthraquinone]  true (1)
1   COc1cc(O)c2c(c1)C(=O)c1cc(C)cc(O)c1C2=O  true (1)
2                O=C1c2ccccc2C(=O)c2ccccc21  true (1)

Given the entry O=C1c2cccc(O)c2C(=O)c2c(O)cc(CO)cc21 , answer whether its inhibition at 5 µg/mL meets or surpasses 40%.
true (1)

Is inhibition at 5 µg/mL at least 40%? Consider Cc1cc(O)c2c(c1)C(=O)c1cccc(O)c1C2=O [Chrysophanic acid, 1,8-dihydroxyl-6-methyl anthraquinone]
false (0)

Does O=c1cc(-c2ccc(O)cc2)oc2cc(O)cc(O)c12 [Apigenin, reference compound] have a reported inhibition at 5 µg/mL of at least 40%?
false (0)
